biological target: rabbit PAD2 (Oryctolagus cuniculus, UniProt G1T837); assay: Inhibition of PAD2 enzyme activity; format: biochemical; conditions: rabbit PAD2; Table 1
Sequence (G1T837 1-665): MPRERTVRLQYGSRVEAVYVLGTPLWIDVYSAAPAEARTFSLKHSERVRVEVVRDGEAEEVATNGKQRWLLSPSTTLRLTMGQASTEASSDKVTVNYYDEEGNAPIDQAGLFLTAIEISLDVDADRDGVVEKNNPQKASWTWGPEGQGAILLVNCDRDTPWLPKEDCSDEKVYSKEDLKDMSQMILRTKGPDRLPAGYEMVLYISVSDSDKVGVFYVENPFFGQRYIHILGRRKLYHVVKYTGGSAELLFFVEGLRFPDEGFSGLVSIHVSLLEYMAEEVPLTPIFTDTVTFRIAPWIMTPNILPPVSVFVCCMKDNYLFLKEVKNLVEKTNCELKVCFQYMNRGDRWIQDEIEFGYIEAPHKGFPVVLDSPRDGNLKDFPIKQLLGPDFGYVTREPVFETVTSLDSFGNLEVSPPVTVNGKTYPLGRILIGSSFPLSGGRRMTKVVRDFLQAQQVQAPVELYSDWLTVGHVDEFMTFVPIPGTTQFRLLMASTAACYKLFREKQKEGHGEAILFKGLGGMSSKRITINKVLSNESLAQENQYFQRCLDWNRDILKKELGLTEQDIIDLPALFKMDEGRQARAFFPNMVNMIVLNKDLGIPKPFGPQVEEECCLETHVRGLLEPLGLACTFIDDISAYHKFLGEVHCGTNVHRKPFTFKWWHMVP
METRIC: IC50 (µM)

CC(C)(C)OC(=O)CC1(C)NC(=O)N(CN2CCNCC2)C1=O (centres unmarked) [Formula (Ic)]: 16.8
CCOC(=O)CC1(C)NC(=O)N(CN2CCNCC2)C1=O (centres unmarked) [Formula (Ib)]: 12.3

----------
molecular target: UniProt Q9ULC6; test: Inhibition of PAD1 enzyme activity (BAEE substrate, colorimetric, 530 nm); assay type: biochemical; settings: Table 1
METRIC: IC50 (µM)
All answers are understood in µM, so give the number only.

Task item: Quick one: IC50 for "CC1(C)NC(=O)N(CN2CCNCC2)C1=O" ?
Reply: 763

----------
target: human PAD4 (Homo sapiens); test: Inhibition of PAD4 enzyme activity (BAEE substrate, colorimetric, 530 nm); type: biochemical; details: read-out: IC50 (μM), PAD4; human PAD4; Table 1; varies with salt form and batch of the enzyme
METRIC: IC50

Task item: // query IC50 value for entry "CC1(C)NC(=O)N(CN2CCNCC2)C1=O"
Reply: ≤ 3820 µM

----------
Biological target: human PAD1 (Homo sapiens, UniProt Q9ULC6)
Sequence (Q9ULC6 whole entry): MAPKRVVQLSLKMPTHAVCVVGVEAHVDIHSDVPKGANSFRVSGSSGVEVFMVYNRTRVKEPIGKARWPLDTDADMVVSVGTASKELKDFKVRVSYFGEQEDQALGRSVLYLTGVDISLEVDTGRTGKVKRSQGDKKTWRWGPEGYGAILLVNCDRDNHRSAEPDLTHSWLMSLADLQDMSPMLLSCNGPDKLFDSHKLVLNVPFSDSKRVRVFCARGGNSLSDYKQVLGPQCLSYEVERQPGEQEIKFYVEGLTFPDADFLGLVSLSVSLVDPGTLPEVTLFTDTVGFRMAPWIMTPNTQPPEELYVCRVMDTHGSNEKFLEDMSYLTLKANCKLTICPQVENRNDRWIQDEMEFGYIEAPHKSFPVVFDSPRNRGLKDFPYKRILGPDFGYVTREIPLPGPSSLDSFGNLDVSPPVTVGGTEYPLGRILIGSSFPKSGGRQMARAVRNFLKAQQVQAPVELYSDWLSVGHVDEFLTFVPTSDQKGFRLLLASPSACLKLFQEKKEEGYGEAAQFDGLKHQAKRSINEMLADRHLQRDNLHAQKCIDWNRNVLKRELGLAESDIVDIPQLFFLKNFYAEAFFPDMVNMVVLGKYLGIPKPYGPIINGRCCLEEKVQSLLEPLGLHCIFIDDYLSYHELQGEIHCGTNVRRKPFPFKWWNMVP
Test: Inhibition of PAD1 enzyme activity (BAEE substrate, colorimetric, 530 nm)
Assay type: biochemical
Conditions: Table 2; read-out: PAD Ki ± SE (μM), PAD1
Procedure: Control reaction contained no inhibitor. Enzyme was added to initiate the reaction. The reaction samples were incubated at 37° C. for 30 min. Color reagent was added and the samples were boiled for 15 min. Samples were cooled on ice, further processed, and the absorbance was measured at 530 nm. Remaining activity was calculated as a percentage of the uninhibited samples.
METRIC: Ki (µM)

Before answering, review these 4 worked examples.
CN1CCN(CN2C(=O)NC(C)(C)C2=O)CC1 [I(e)]: 115
CC1(C)NC(=O)N(CCN)C1=O: 117
CC1(C)NC(=O)N(CCCNCCN)C1=O: 42.9
CC1(C)NC(=O)N(CCn2ccnc2)C1=O: 110

a: CC1(C)NC(=O)N(CCCN)C1=O
b: CC1(C)NC(=O)N(CCNCC(N)=O)C1=O
c: CC1(C)NC(=O)N(CCNCCN)C1=O
Task item: Put the entries in order of Ki, starting with the largest number. Answer format: the labels, ordered as requested.
Reply: a, c, b
(a: 105 µM, c: 55.5 µM, b: 33.6 µM)

----------
target: rabbit PAD2 (Oryctolagus cuniculus); assay: Inhibition of PAD2 enzyme activity; format: biochemical; conditions: Example 8; read-out: equilibrium inhibition constant Ki against PAD2
METRIC: Ki (nM)

CCOC(=O)CC1(C)NC(=O)N(CN2CCNCC2)C1=O (centres unmarked): 460
CC(C)(C)OC(=O)CC1(C)NC(=O)N(CN2CCNCC2)C1=O (centres unmarked): 650

----------
assay: In vitro cellular toxicity to CHO cells; format: cell-based; conditions: Chinese hamster, read-out: CHO cells IC50 ± SE
In this section, each of the molecules is paired with its reported IC50.
Write the answer as a number in mM, unit excluded.

CN1CCN(CN2C(=O)NC(C)(C)C2=O)CC1 [I(e)]: 0.143
CC1(C)NC(=O)N(CCN)C1=O [I(i)]: 5.84
CC1(C)NC(=O)N(CCn2ccnc2)C1=O [I(g)]: 1.99
CC1(C)NC(=O)N(CCCNCCN)C1=O [I(l)]: 16.7

Here's the next entry for you.
Task item: So what does the record say about IC50 for CC1(C)NC(=O)N(CCNCCN)C1=O [I(j)] ?
Reply: 2.69

----------
target: rabbit PAD2 (Oryctolagus cuniculus, UniProt G1T837); assay: Inhibition of PAD2 enzyme activity; type: biochemical
METRIC: pKi
API: returns pKi as number; meaning -log10 of concentration in mol/L.

Task item: # input compound: CC1(C)NC(=O)N(CN2CCNCC2)C1=O [Formula (Ia)] ; wanted: its pKi
Reply: 6.03

----------
target: human PAD4 (Homo sapiens); assay: Inhibition of PAD4 enzyme activity (BAEE substrate, colorimetric, 530 nm); format: biochemical; conditions: Table 2; read-out: PAD Ki ± SE (μM), PAD4
METRIC: Ki (µM)

CC1(C)NC(=O)N(CCCN)C1=O: 384

P: CC1(C)NC(=O)N(CCNCC(N)=O)C1=O
Q: CN1CCN(CN2C(=O)NC(C)(C)C2=O)CC1 [I(e)]
Task item: Lower value of Ki belongs to which: P or Q ? Select an item and report its label.
Reply: P
(P: 21.8 µM, Q: 45.6 µM)

----------
target: human PAD4 (Homo sapiens, UniProt Q9UM07); test: Inhibition of PAD4 enzyme activity (BAEE substrate, colorimetric, 530 nm); type: biochemical; conditions: human PAD4; Table 1; varies with salt form and batch of the enzyme; read-out: IC50 (μM), PAD4
Sequence (Q9UM07 whole entry): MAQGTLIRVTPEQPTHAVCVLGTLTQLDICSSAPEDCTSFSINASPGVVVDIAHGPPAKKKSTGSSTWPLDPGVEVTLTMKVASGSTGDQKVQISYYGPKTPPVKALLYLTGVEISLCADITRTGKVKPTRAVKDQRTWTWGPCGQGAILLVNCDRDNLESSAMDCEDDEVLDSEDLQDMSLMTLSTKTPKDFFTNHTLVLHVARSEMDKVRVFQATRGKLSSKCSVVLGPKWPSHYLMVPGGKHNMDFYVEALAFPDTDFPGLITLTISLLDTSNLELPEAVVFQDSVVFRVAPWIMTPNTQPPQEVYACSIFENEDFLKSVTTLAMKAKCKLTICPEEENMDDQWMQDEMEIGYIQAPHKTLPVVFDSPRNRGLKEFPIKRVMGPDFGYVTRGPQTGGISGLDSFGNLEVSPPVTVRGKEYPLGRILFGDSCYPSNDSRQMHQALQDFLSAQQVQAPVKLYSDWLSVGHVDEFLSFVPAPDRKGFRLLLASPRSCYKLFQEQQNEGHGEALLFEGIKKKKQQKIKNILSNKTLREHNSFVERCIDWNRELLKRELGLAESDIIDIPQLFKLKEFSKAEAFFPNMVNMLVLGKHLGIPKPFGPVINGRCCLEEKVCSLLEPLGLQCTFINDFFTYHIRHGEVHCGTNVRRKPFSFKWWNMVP
METRIC: IC50 (µM)
Number only, in µM; omit the unit.

Task item: # lookup: IC50 of CCOC(=O)CC1(C)NC(=O)N(CN2CCNCC2)C1=O (stereo not shown)
Reply: 36

----------
target: human PAD4 (Homo sapiens); experiment: Inhibition of PAD4 enzyme activity (BAEE substrate, colorimetric, 530 nm); type: biochemical; conditions: Table 2; read-out: PAD Ki ± SE (μM), PAD4
METRIC: Ki (µM)

1: CC1(C)NC(=O)N(CCCNCCN)C1=O
2: CC1(C)NC(=O)N(CCn2ccnc2)C1=O
3: CC1(C)NC(=O)N(CCN)C1=O
4: CC1(C)NC(=O)N(CCNCCN)C1=O
Task item: Order required: smallest reported Ki first, largest last, for all compounds above. Response field: labels, in requested order.
Reply: 2, 4, 1, 3
